# protocol notes: Transport experiment in Caco-2 monolayers
# Type: in vitro ADME, human
# test parameters: human, Caco-2
# Description: The absorptions of troxerutin and its acylated derivatives was measured as described by Chen et al.. […] Transepithelial electrical resistance (TEER) and lucifer yellow were measured to detect the integrity of Caco-2 monolayers. […] ALP activity was measured to detect the differentiation degree of Caco-2 monolayers by using an ALP Assay Kit. […]
Label T when Papp A→B at 150 min, 100 μM is strictly below 0.3 ×10⁻⁶ cm/s; at or above that, label F.

Solved entries:
CCC(=O)OCCOc1cc(O)c2c(=O)c(OC3OC(COC4OC(C)C(O)C(O)C4O)C(O)C(O)C3O)c(-c3ccc(OCCOC(=O)CC)c(OCCO)c3)oc2c1 (centres unmarked) [TDE]    F
C[C@@H]1O[C@@H](OC[C@H]2O[C@@H](Oc3c(-c4ccc(OCCO)c(OCCO)c4)oc4cc(OCCO)cc(O)c4c3=O)[C@H](O)[C@@H](O)[C@@H]2O)[C@H](O)[C@H](O)[C@H]1O [Troxerutin, troxerutin]    F
CC(C)NCC(O)COc1cccc2ccccc12 (centres unmarked) [Propranolol]    F
C[C@@H]1O[C@@H](OC[C@H]2O[C@@H](Oc3c(-c4ccc(O)c(O)c4)oc4cc(O)cc(O)c4c3=O)[C@H](O)[C@@H](O)[C@@H]2O)[C@H](O)[C@H](O)[C@H]1O [Rutin, rutin]    T

Now for another entry.
Consider CCC(=O)OCCOc1ccc(-c2oc3cc(OCCO)cc(O)c3c(=O)c2OC2OC(COC3OC(C)C(O)C(O)C3O)C(O)C(O)C2O)cc1OCCO (centres unmarked) [TME] . Does its Papp A→B at 150 min, 100 μM lie strictly below 0.3 ×10⁻⁶ cm/s?
F

Origin of measurements: paper PMC6106897
